Listed here are molecules together with their documented IC50.
tested.on: bromodomain of SMARCA2 protein (Homo sapiens (Human), UniProt P40337+P51531)
Sequence (P51531 whole entry, looked up): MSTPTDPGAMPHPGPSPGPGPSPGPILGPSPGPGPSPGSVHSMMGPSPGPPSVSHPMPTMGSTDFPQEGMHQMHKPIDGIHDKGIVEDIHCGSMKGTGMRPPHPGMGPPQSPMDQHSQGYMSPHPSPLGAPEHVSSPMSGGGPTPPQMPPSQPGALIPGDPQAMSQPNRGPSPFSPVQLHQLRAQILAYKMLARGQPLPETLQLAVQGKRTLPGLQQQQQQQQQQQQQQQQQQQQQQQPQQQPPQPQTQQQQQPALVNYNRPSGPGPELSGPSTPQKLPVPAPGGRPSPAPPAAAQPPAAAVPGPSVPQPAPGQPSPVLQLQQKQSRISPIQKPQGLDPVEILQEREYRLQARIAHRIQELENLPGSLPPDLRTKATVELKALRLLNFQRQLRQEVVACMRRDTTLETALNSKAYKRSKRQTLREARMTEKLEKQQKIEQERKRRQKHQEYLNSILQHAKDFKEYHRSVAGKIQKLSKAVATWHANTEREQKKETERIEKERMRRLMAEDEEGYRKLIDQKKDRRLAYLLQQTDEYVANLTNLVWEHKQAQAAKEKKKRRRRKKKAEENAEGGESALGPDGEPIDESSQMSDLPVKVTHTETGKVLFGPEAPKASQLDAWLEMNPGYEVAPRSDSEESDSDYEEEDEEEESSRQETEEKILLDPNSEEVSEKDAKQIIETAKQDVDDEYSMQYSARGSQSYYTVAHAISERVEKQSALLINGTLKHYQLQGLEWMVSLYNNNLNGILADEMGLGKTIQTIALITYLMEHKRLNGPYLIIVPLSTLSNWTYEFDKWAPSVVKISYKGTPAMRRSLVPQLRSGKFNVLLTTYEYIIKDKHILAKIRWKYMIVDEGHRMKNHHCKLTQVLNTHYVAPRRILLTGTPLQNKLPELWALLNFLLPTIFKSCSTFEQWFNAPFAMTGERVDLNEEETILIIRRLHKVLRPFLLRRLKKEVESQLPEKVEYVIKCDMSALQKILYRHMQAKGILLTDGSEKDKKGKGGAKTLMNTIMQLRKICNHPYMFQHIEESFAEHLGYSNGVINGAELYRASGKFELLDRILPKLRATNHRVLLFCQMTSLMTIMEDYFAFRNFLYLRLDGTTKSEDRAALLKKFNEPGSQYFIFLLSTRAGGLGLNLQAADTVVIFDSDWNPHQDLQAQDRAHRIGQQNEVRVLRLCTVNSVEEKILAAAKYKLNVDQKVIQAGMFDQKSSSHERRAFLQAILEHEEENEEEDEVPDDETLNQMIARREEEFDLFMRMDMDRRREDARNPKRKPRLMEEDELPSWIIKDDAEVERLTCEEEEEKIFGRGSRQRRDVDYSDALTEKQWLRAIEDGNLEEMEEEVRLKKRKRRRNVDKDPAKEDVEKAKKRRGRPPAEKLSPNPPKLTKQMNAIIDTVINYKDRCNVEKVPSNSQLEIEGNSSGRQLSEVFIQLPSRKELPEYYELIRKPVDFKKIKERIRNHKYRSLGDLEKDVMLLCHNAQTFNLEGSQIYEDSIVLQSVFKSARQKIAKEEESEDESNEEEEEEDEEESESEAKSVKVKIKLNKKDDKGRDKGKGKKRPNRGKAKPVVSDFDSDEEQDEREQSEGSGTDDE
Sequence (P40337 whole entry, looked up): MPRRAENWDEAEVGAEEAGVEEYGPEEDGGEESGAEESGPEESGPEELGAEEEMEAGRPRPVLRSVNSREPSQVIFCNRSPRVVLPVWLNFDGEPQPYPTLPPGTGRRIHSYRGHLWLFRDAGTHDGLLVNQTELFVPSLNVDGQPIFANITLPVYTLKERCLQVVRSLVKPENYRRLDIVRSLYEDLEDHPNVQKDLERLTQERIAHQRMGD
Sequence (Q15370 whole entry partner, looked up): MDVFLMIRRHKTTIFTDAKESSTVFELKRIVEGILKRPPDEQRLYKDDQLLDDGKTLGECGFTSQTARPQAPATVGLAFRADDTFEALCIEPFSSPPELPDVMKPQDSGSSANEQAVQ
Sequence (Q15369 whole entry partner, looked up): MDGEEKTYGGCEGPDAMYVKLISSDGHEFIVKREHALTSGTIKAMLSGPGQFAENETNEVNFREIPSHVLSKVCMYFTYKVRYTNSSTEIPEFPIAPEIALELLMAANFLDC
protocol: SMARCA2 bromodomain ternary binding TR-FRET assay (with VCB)
test.conditions: with saturating VCB (5 μM); read-out: IC50 (SM 2_T) ternary binding potency in SMARCA2 FRET assay
From the text: Recombinant bromodomain of SMARCA2 protein was purchased from Active Motif (Catalog #: 31449). VHL/ElonginB/ElonginC (VCB)N-terminal his6-tagged VHL (“his6” disclosed as SEQ ID NO: 4) (uniprot accession number P40337; M54-D213; […] […] (SEQ ID NO: 1)), Elongin B (Q15370; M1-K104; […] […] (SEQ ID NO: 2)), Elongin C (Q15369; M17-C112; […] […]

Field: example entries. Status: answers known.
Cc1scnc1-c1ccc(CNC(=O)[C@@H]2C[C@@H](O)CN2C(=O)[C@@H](NC(=O)CN2CCN3c4cc(-c5ccccc5O)nnc4NCC3C2)C(C)(C)C)cc1 (single isomer, unassigned) [Example 2b]	< 100 nM
Cc1ncsc1-c1ccc([C@H](C)NC(=O)[C@@H]2C[C@@H](O)CN2C(=O)[C@@H](c2cc(OCCN3CCN4c5cc(-c6ccccc6O)nnc5NCC4C3)no2)C(C)C)cc1 (stereo partly drawn)	< 100 nM

// query What value of measured IC50 is listed for Cc1ncsc1-c1ccc([C@H](C)NC(=O)[C@@H]2C[C@@H](O)CN2C(=O)[C@@H](NC(=O)CN2CCC(CN3CCN4c5cc(-c6ccccc6O)nnc5NCC4C3)CC2)C(C)(C)C)cc1 (stereo partly drawn) ?
// result < 100 nM

====

Catalogue of Dmax values
tested.on: UniProt P51531
protocol: SMARCA2 HiBiT degradation assay in HEK293T cells
Type: cell-based
test.conditions: HEK-293T; 293T HiBiT assay, 24 h; read-out: Dmax % (SM2-293T) maximum SMARCA2 degradation within the concentrations tested

# count of solved cases: 3
Cc1ncsc1-c1ccc([C@H](C)NC(=O)[C@@H]2C[C@@H](O)CN2C(=O)[C@@H](c2cc(OCCN3C4CCC3CC(CN3CCN5c6cc(-c7ccccc7O)nnc6NCC5C3)C4)no2)C(C)C)cc1 (stereo partly shown) [Example 78]	> 75%
Cc1ncsc1-c1ccc([C@H](C)NC(=O)[C@@H]2C[C@@H](O)CN2C(=O)[C@@H](c2cc(CCCN3CCC(N4CCN5c6cc(-c7ccccc7O)nnc6NC[C@H]5C4)CC3)no2)C(C)C)cc1 [Example 33]	> 75%
Cc1ncsc1-c1ccc([C@H](C)NC(=O)[C@@H]2C[C@@H](O)CN2C(=O)[C@@H](c2cc(OCCN3CCC(N4CCN5c6cc(-c7ccccc7O)nnc6NC[C@H]5C4)C(C)C3)no2)C(C)C)cc1 (single isomer, unassigned) [Example 56]	> 75%

Now take the following compound into account.
// query For the compound shown here, Cc1ncsc1-c1ccc([C@H](C)NC(=O)[C@@H]2C[C@@H](O)CN2C(=O)[C@@H](NC(=O)OCCN2CCC(N3CCN4c5cc(-c6ccccc6O)nnc5NC[C@H]4C3)CC2)C(C)(C)C)cc1 [Example 80] , give the reported Dmax.
// result > 75%

====

tested.on: SMARCA4 (Homo sapiens (Human), UniProt P51532)
Sequence (P51532 whole entry): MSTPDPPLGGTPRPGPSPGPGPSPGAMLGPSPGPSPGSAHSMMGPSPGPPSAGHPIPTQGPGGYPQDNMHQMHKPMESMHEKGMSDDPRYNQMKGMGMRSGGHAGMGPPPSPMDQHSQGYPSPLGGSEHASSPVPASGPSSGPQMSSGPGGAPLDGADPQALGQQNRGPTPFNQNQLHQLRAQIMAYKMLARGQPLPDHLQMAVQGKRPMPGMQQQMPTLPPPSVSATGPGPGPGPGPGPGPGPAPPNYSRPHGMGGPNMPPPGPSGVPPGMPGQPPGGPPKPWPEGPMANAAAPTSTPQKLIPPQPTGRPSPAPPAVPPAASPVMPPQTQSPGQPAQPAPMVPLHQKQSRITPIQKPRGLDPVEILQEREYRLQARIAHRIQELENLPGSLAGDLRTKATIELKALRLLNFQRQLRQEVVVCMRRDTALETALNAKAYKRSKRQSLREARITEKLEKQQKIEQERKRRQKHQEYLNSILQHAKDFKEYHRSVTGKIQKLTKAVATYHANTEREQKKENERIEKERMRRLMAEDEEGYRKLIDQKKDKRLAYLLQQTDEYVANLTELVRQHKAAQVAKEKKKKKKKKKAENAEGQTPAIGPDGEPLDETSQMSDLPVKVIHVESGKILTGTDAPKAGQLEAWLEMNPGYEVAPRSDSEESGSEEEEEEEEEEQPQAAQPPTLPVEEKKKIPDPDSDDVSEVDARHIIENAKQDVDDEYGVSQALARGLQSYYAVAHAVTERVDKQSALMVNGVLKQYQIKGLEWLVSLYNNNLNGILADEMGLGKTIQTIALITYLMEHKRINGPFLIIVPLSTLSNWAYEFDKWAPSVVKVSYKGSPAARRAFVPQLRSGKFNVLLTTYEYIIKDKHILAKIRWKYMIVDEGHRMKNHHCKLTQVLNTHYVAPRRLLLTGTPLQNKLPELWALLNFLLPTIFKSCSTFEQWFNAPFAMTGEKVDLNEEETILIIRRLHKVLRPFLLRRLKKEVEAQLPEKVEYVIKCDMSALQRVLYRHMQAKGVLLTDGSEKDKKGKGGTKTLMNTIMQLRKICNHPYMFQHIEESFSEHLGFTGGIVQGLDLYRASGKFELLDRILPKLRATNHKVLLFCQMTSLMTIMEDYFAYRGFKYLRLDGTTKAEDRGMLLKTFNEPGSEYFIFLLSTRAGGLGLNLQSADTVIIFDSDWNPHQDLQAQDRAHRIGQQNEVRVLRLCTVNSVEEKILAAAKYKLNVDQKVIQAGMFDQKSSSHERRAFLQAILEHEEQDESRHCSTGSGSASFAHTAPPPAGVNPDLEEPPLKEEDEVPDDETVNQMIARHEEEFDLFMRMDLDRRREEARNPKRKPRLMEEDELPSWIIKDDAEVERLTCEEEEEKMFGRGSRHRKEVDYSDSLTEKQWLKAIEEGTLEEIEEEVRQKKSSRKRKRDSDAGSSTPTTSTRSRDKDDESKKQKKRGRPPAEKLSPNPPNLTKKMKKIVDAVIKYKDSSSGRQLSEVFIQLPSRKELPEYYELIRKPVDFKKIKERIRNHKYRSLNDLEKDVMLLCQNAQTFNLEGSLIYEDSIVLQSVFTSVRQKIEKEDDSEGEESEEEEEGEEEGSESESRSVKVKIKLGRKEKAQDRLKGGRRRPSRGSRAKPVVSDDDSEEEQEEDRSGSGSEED
protocol: SMARCA4 HiBiT degradation assay in HeLa cells
Assay type: cell-based
test.conditions: HeLa, 18 hours, read-out: Dmax % (SM4-HeLa) maximum SMARCA4 degradation within the concentrations tested
parameter.measured: Dmax

// query Recorded Dmax for Cc1ncsc1-c1ccc([C@H](C)NC(=O)[C@@H]2C[C@@H](O)CN2C(=O)[C@@H](c2cc(CCCN3CCCC(N4CCN5c6cc(-c7ccccc7O)nnc6NC[C@H]5C4)C3)no2)C(C)C)cc1 (stereo partly shown) with SMARCA4 (Homo sapiens (Human), UniProt P51532), please?
// result 50 to 75%

// query Could you share what Dmax was measured for Cc1ncsc1-c1ccc([C@H](C)NC(=O)[C@@H]2C[C@@H](O)CN2C(=O)[C@@H](c2cc(OCCN3CCC(C(C)N4CCN5c6cc(-c7ccccc7O)nnc6NC[C@H]5C4)CC3)no2)C(C)C)cc1 (single isomer, unassigned) , tested on SMARCA4 (Homo sapiens (Human), UniProt P51532)?
// result > 75%

// query Item: Cc1ncsc1-c1ccc([C@H](C)NC(=O)[C@@H]2C[C@@H](O)CN2C(=O)[C@@H](c2cc(OCCN3CCC(N4CCN5c6cc(-c7ccccc7O)nnc6NCC5(C)C4)CC3)no2)C(C)C)cc1 (stereo partly shown) Test system: SMARCA4 (Homo sapiens (Human), UniProt P51532) Read-out: Dmax Value: ?
// result > 75%

// query Item: Cc1ncsc1-c1ccc([C@H](C)NC(=O)[C@@H]2C[C@@H](O)CN2C(=O)[C@@H](c2cc(OCCN3CCC(N4CCN5c6cc(-c7ccccc7O)nnc6NC[C@H]5C4)C(O)C3)no2)C(C)C)cc1 (stereo partly shown) Test system: SMARCA4 (Homo sapiens (Human), UniProt P51532) Read-out: Dmax Value: ?
// result > 75%

====

The following compounds are shown together with reported DC50 values.
tested.on: SMARCA4 (Homo sapiens (Human))
protocol: SMARCA4 HiBiT degradation assay in HeLa cells
Assay type: cell-based
test.conditions: 18 hours, read-out: DC50 (SM4-HeLa) SMARCA4 degradation potency

// query Reported DC50, compound Cc1ncsc1-c1ccc([C@H](C)NC(=O)[C@@H]2C[C@@H](O)CN2C(=O)[C@@H](c2cc(OCCN(C)C3CCC(N4CCN5c6cc(-c7ccccc7O)nnc6NC[C@H]5C4)CC3)no2)C(C)C)cc1 (stereo partly shown) : ____
// result < 100 nM

====

In this section, each of the molecules is paired with its reported Dmax.
tested.on: UniProt P51532
protocol: In Cell Western SMARCA4 degradation in NCIH520 cells
Assay type: cell-based
test.conditions: NCI-H520, overnight, read-out: Dmax % (SM4_H520) maximum SMARCA4 degradation within the concentrations tested

Examples with answers:
Cc1scnc1-c1ccc(CNC(=O)[C@@H]2C[C@@H](O)CN2C(=O)[C@@H](NC(=O)CN2CCN3c4cc(-c5ccccc5O)nnc4NCC3C2)C(C)(C)C)cc1 (single isomer, unassigned) [Example 2a]	50 to 75%
Cc1ncsc1-c1ccc([C@H](C)NC(=O)[C@@H]2C[C@@H](O)CN2C(=O)[C@@H](c2cc(OCCN3CCN4c5cc(-c6ccccc6O)nnc5NCC4C3)no2)C(C)C)cc1 (some centres unmarked) [Example 4]	> 75%
Cc1ncsc1-c1ccc([C@H](C)NC(=O)[C@@H]2C[C@@H](O)CN2C(=O)C(c2cc(OCCN3CCC(CN4CCN5c6cc(-c7ccccc7O)nnc6NCC5C4)CC3)no2)C(C)C)cc1 (stereo in doubt) [Example 5]	> 75%

// query Dmax for Cc1ncsc1-c1ccc([C@H](C)NC(=O)[C@@H]2C[C@@H](O)CN2C(=O)[C@@H](NC(=O)CN2CCC(CN3CCN4c5cc(-c6ccccc6O)nnc5NCC4C3)CC2)C(C)(C)C)cc1 (some centres unmarked) [Example 3] ?
// result > 75%

// query Dmax lookup needed for Cc1ncsc1-c1ccc([C@H](C)NC(=O)[C@@H]2C[C@@H](O)CN2C(=O)[C@@H](NC(=O)CN2CCN3c4cc(-c5ccccc5O)nnc4NCC3C2)C(C)(C)C)cc1 (single isomer, unassigned) [Example 1a] , thanks.
// result > 75%

====

tested.on: SMARCA2 (Homo sapiens (Human), UniProt P51531)
Sequence (P51531 whole entry): as the sequence (P51531 whole entry, looked up) above
protocol: SMARCA2 HiBiT degradation assay in HeLa cells
Type: cell-based
test.conditions: 18 hours, read-out: DC50 (SM2-HeLa) SMARCA2 degradation potency
parameter.measured: DC50

Cc1ncsc1-c1ccc([C@H](C)NC(=O)[C@@H]2C[C@@H](O)CN2C(=O)[C@@H](c2cc(OCCN3CCC(N4CCC(N5CCN6c7cc(-c8ccccc8O)nnc7NC[C@H]6C5)CC4)C3)no2)C(C)C)cc1 (stereo partly drawn) [Example 25]	< 0.1 µM
CCC(CN1CCC(N2CCN3c4cc(-c5ccccc5O)nnc4NC[C@H]3C2)C1)Oc1cc(C(C(=O)N2C[C@H](O)C[C@H]2C(=O)N[C@@H](C)c2ccc(-c3scnc3C)cc2)C(C)C)on1 (stereo partly drawn) [Example 61]	< 0.1 µM
CCC(CN1CCC(N2CCN3c4cc(-c5ccccc5O)nnc4NC[C@H]3C2)CC1)Oc1cc([C@H](C(=O)N2C[C@H](O)C[C@H]2C(=O)N[C@@H](C)c2ccc(-c3scnc3C)cc2)C(C)C)on1 (stereo partly drawn) [Example 60]	< 0.1 µM
Cc1ncsc1-c1ccc([C@H](C)NC(=O)[C@@H]2C[C@@H](O)CN2C(=O)[C@@H](c2cc(O[C@H](C)C(=O)N3CCC(N4CCN5c6cc(-c7ccccc7O)nnc6NC[C@H]5C4)CC3)no2)C(C)C)cc1 [Example 73]	< 0.1 µM
Cc1ncsc1-c1ccc([C@H](C)NC(=O)[C@@H]2C[C@@H](O)CN2C(=O)[C@@H](c2cc(CCCN(C)CCN3CCN4c5cc(-c6ccccc6O)nnc5NC[C@H]4C3)no2)C(C)C)cc1 [Example 92]	< 0.1 µM

// query So what DC50 did Cc1ncsc1-c1ccc([C@H](C)NC(=O)[C@@H]2C[C@@H](O)CN2C(=O)[C@@H](c2cc(OCCN3CC(O)C(N4CCN5c6cc(-c7ccccc7O)nnc6NC[C@H]5C4)C3)no2)C(C)C)cc1 (stereo partly drawn) [Example 93] get with SMARCA2 (Homo sapiens (Human), UniProt P51531)?
// result < 0.1 µM

// query Missing value: DC50, SMARCA2 (Homo sapiens (Human), UniProt P51531), entry Cc1ncsc1-c1ccc([C@H](C)NC(=O)[C@@H]2C[C@@H](O)CN2C(=O)C(c2cc(O[C@H](C)C(=O)N3CCC(N4CCN5c6cc(-c7ccccc7O)nnc6NC[C@H]5C4)C3)no2)C(C)C)cc1 (stereo partly drawn) [Example 28] . Fill in?
// result < 0.1 µM
